molecular target: Peroxisome proliferator-activated receptor gamma (Homo sapiens) (UniProt P37231); assay: PPARgamma agonists recruiting SRC-3 coactivator, primary screen, biochemical (AID 731); details: biochemical PPARgamma/SRC-3 coactivator recruitment assay; at 8 µM
Sequence (P37231 whole entry, looked up): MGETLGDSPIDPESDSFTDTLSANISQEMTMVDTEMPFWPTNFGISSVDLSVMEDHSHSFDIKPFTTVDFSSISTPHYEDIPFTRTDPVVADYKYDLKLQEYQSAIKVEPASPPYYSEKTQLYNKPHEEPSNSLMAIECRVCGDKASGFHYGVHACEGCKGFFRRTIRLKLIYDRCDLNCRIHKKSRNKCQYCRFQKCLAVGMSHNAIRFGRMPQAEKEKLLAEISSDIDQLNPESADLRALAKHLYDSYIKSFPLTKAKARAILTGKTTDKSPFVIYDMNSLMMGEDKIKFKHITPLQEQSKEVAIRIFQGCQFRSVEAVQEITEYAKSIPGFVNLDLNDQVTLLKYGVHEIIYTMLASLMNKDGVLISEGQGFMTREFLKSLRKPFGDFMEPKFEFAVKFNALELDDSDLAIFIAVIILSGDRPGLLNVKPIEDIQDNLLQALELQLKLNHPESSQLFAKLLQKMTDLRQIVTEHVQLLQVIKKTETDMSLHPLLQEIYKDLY
Among all 200,000 compounds or so, about 520 (0.26%) were called active. Rule as the data show it: active = activation above about 23%; inactive = the rest. The full list was thinned out, with actives kept by preference.
Outcomes: active, inactive

[[record]]
compound = "CNC(=S)N1N=C(c2ccccc2)CC1c1ccc(Br)cc1 (stereo not drawn)"
class = "active"

[[record]]
compound = "CCOc1ccc(CCNC(=O)CSc2cc(=O)n(C)c3ccc(Cl)cc23)cc1OCC"
class = "inactive"

[[record]]
compound = "Cc1cccc2cc(C#N)c(N3CCCC3)nc12"
class = "inactive"

[[record]]
compound = "O=C(NCc1ccco1)C(=O)c1cn(CC(=O)N2CCCCCC2)c2ccccc12"
class = "inactive"

[[record]]
compound = "CCOC(=O)C1CCN(C(=O)Cn2cc(C#N)c3ccccc32)CC1"
class = "inactive"

[[record]]
compound = "COc1ccc(-n2nc3c(c2NC(=O)c2ccc(N4C(=O)CCC4=O)cc2)CSC3)cc1"
class = "inactive"

[[record]]
compound = "O=C(CSCc1ccc(Cl)cc1)N1CCCCC1"
class = "inactive"

[[record]]
compound = "Cc1cc(C)c2nc(N3CCCC3)c(C#N)cc2c1"
class = "inactive"

[[record]]
compound = "N/C(=N\\OC(=O)c1ccc([N+](=O)[O-])cc1)c1ccccn1"
class = "inactive"

[[record]]
compound = "CCn1c(=O)cc(SCC(=O)NCc2ccc3c(c2)OCO3)c2ccccc21"
class = "active"

[[record]]
compound = "Cc1ccc(C2=NN(C(=O)COc3ncnc4ccccc34)C(c3ccco3)C2)cc1 (stereo not drawn)"
class = "inactive"

[[record]]
compound = "O=C(COC(=O)/C(=C/c1cccs1)c1cccs1)NCc1ccccc1Cl"
class = "inactive"

[[record]]
compound = "CCOC(=O)c1c(C)nc2c(c1C)c(=O)oc1ccccc12"
class = "inactive"

[[record]]
compound = "CCn1c(=O)cc(SCC(=O)NCCC2=CCCCC2)c2ccccc21"
class = "inactive"

[[record]]
compound = "Cn1c(=O)cc(SCC(=O)N2CCCC2)c2cc(Cl)ccc21"
class = "active"

[[record]]
compound = "Cn1c(=O)cc(SCC(=O)N2CCN(C(=O)c3ccco3)CC2)c2ccccc21"
class = "active"

[[record]]
compound = "COc1cc(OC)c(-n2cc(-c3ccc(Cl)cc3)[nH]c2=O)cc1Cl"
class = "inactive"

[[record]]
compound = "CCOC(=O)C1CCN(C(=O)CSc2cc(=O)n(C)c3ccccc23)CC1"
class = "active"

[[record]]
compound = "CC(=O)c1ccc(-n2nnnc2SCC(=O)N2CCN(C(=O)c3ccco3)CC2)cc1"
class = "inactive"

[[record]]
compound = "CCOC(=O)N1CCC(NC(=O)COc2cc(=O)n(C)c3ccccc23)CC1"
class = "inactive"

[[record]]
compound = "CCC1(CC)NC(=O)N(CC(=O)OCC(=O)Nc2ccc(C(F)(F)F)cc2)C1=O"
class = "inactive"

[[record]]
compound = "O=C(O)CCS(=O)(=O)c1ccc(-c2ccccc2)cc1"
class = "inactive"

[[record]]
compound = "CC(=O)N/N=C(\\C)c1ccc(Br)cc1Br"
class = "inactive"

